test_target: MerTK (Homo sapiens, UniProt Q12866)
Construct: Seed HUVECs (10K cells/well) in EBM-2 complete media
Sequence (Q12866 21-999): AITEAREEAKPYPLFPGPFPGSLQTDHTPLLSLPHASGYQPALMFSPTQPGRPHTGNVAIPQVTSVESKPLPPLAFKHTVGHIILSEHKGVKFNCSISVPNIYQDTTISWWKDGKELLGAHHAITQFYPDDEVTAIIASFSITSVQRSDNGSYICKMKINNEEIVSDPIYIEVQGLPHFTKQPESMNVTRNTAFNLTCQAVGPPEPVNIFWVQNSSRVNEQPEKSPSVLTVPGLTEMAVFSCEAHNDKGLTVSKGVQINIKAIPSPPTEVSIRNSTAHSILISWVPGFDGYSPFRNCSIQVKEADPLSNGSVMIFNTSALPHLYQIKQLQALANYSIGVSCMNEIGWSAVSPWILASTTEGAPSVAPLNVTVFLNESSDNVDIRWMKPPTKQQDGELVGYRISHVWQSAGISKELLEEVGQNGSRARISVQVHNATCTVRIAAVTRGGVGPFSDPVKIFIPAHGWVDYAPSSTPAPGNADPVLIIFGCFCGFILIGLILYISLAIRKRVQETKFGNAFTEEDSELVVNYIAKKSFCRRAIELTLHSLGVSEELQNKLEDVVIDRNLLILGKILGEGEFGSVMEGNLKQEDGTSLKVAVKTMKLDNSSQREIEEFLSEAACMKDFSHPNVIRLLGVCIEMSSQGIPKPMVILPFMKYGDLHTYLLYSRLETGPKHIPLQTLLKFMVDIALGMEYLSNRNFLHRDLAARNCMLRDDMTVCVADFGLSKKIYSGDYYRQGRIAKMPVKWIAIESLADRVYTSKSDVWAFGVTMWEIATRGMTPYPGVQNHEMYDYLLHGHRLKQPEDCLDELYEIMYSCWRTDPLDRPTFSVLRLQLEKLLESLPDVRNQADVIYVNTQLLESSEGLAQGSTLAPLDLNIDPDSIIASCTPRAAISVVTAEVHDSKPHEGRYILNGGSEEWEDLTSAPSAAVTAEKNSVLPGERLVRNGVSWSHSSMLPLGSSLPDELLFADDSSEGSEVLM
assay_text: PAKT HTRF-HUVEC assay (pAkt Ser473 HTRF after anti-human MerTK-XL stimulation)
settings: HUVEC cells, 1 hour compound, stimulated with anti-human MerTK-XL 1 ug/mL for 10 minutes, read-out: inhibition of MerTK
# EC50 per entry
Write the answer as a number in nM, unit excluded.

Check out these entries, answers already filled in.
Give EC50 for the following compound: "CCCCNc1ncc2c3ccc(CN4CCN(C)CC4)cc3c(=O)n([C@H]3CC[C@H](NC(=N)N)C3)c2n1"
947

State its EC50: "CCC[C@H](C)Nc1ncc2c3ccc(CN4CCC5(CC4)COC5)cc3c(=O)n([C@H]3CC[C@H](O)CC3)c2n1"
10.5

Give the reported value of EC50 for this record: "CCCCNc1ncc2c3ccc(CN4CCN(C)CC4)cc3c(=O)n([C@H]3CC[C@H](NC(=O)OC(C)(C)C)C3)c2n1"
1910

Give reported EC50 value for CCCCNc1ncc2c3ccc(CN4CCOCC4)cc3c(=O)n(CC3CCC(N)CC3)c2n1 (centres unmarked)
116

Moving on to the next compound.
Supply measured EC50 of CN1CCN(Cc2ccc3c(c2)c(=O)n([C@H]2CC[C@H](OC(N)=O)CC2)c2nc(NCC4CC4)ncc32)CC1 [Compound 181] in your reply.
292
